All figures here come from patent US20260365670A1.

target: EGFR Exon19Del (Homo sapiens, UniProt P00533, DEL746-750); construct: purchased Carna Bio; assay: Inhibition of EGFR Exon19Del biochemical enzymatic activity (HTRF); conditions: EGFR Del19, 1 mM ATP, 1 h, room temperature, read-out: IC50 @Del19
Sequence (P00533 with tags, fused parts or gaps DEL746-750 limits assumed): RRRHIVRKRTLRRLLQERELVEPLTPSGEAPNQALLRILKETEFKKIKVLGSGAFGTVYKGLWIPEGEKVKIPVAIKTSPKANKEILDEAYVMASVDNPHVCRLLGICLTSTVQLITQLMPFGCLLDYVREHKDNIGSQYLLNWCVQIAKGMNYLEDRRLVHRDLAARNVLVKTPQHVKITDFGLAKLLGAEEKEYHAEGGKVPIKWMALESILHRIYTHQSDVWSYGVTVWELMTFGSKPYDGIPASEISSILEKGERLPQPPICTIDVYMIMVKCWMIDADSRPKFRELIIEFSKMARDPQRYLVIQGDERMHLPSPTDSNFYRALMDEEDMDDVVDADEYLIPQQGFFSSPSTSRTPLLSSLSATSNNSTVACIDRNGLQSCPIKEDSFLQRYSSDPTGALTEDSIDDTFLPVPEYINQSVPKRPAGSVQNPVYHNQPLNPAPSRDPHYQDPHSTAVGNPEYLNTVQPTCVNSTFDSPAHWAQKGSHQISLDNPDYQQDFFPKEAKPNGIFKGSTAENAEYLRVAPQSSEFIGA
Reported Metric: IC50 (nM)
One number for each entry, in nM.

>>> measured_number("CN1CCC2CN(c3ccc4nc5n(c4c3)C34CCC(CN(CCOc6c(cnn6C)-c6cc(cn(C)c6=O)C(=O)N5)C3)C4)CC21 (single isomer, unassigned) [Example A79A]")
1430

Working through the 5 compounds below one at a time, give IC50 for each.
1. CN1CCN(c2ccc3nc4n(c3c2)C23CCC(CN(CCOc5c(cnn5C)-c5cc(cn(C)c5=O)C(=O)N4)C2)C3)CC1 (single isomer, unassigned) [Example A63B]
2. CN(C)CCN(C)c1ccc2nc3n(c2c1)C12CCC(CN(CCOc4c(cnn4C)-c4cc(cn(C)c4=O)C(=O)N3)C1)C2 (single isomer, unassigned) [Example A85B]
3. C[C@@H]1CCCOc2c(cnn2C)-c2cc(cn(C)c2=O)C(=O)Nc2nc3ccc(N4CCC(N5CCOCC5)C4)cc3n2C1 (stereo partly drawn) [Example A28]
4. Cn1ncc2c1OCCN1CC3CCC(C3)(C1)n1c(nc3ccc(N4CCC(N5CCOCC5)C4)cc31)NC(=O)c1cc-2c(=O)n(C)c1 (single isomer, unassigned) [Example A104A]
5. CN(C)CCCN(C)c1ccc2nc3n(c2c1)C12CCC(CN(CCOc4c(cnn4C)-c4cc(cn(C)c4=O)C(=O)N3)C1)C2 (single isomer, unassigned) [Example A89A]

1: 0.86; 2: 1.2; 3: 21; 4: 1280; 5: 250

---

biological target: EGFR[T790M/C797S/L858R] (Homo sapiens, UniProt P00533, C797S/L858R/T790M); construct: purchased Carna Bio; test: Inhibition of EGFR[T790M/C797S/L858R] biochemical enzymatic activity (HTRF); details: EGFR T790M-C797S-L858R, 1 mM ATP, 1 h, room temperature, read-out: IC50 (nM) @T790M- C797S - L858R
Sequence (P00533 25-1210 T790M/C797S/L858R): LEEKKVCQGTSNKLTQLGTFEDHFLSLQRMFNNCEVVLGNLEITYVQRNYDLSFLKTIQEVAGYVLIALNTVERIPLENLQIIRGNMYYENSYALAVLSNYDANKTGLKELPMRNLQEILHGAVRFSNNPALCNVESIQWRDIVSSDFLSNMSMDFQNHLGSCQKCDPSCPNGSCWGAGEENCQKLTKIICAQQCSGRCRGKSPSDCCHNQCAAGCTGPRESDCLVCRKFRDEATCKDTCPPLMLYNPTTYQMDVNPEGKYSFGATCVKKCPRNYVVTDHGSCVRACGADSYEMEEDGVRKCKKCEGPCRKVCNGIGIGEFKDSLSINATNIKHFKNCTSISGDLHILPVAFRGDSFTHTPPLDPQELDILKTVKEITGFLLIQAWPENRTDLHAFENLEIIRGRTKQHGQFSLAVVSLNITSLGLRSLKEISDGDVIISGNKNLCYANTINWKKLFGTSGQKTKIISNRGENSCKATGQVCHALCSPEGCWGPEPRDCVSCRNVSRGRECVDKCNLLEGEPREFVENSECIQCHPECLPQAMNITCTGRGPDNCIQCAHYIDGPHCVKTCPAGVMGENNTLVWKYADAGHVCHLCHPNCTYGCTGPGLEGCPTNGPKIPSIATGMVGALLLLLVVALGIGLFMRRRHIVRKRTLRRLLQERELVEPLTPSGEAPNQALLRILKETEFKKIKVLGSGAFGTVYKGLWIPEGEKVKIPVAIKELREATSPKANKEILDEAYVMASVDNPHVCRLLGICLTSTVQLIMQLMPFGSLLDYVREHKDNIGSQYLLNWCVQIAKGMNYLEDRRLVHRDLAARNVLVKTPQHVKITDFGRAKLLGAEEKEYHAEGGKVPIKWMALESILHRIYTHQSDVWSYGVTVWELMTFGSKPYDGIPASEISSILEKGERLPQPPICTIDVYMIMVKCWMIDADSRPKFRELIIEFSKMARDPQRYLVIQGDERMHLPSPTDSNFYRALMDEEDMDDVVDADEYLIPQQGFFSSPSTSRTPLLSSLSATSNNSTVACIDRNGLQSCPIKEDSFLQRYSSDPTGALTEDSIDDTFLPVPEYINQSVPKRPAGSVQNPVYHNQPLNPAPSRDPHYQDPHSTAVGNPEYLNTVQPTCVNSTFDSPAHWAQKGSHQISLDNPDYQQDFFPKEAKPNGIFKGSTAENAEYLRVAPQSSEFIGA
Please respond with reported log10 IC50 for every item in the list.
Note the log scale: values are log10 of IC50 expressed in nM.

Here is how some molecules turned out for log10 IC50.
>>> measured_number("CN1CCN(c2ccc3c(c2)nc2n3C34CCC(CN(CCOc5c(cnn5C)-c5cc(cn(C)c5=O)C(=O)N2)C3)C4)CC1 (centres unmarked) [Example A60]")
2.20
>>> measured_number("Cn1ncc2c1OCCN1CC3CCC(C3)(C1)n1c(nc3cc(F)c(N4CCOCC4)cc31)NC(=O)c1cc-2c(=O)n(C)c1 (single isomer, unassigned) [Example A118B]")
1.04
>>> measured_number("CN(C)CCC1CN(c2ccc3nc4n(c3c2)C23CCC(CN(CCOc5c(cnn5C)-c5cc(cn(C)c5=O)C(=O)N4)C2)C3)C1 (single isomer, unassigned) [Example A95B]")
0.52
>>> measured_number("C[C@@H]1CCCOc2c(cnn2C)-c2cc(cn(C)c2=O)C(=O)Nc2nc3ccc(N4CCN(C)CC4)c(Cl)c3n2C1")
0.51
>>> measured_number("COCCN(C)c1ccc2nc3n(c2c1)C12CCC(CN(CCOc4c(cnn4C)-c4cc(cn(C)c4=O)C(=O)N3)C1)C2 (single isomer, unassigned) [Example A90B]")
0.97
>>> measured_number("Cn1ncc2c1OCCN1CC3CCC(C3)(C1)n1c(nc3cc(F)ccc31)NC(=O)c1cc-2c(=O)n(C)c1 (centres unmarked) [Example A117B]")
2.45
>>> measured_number("C[C@@H]1CCCOc2c(cnn2C)-c2cc(cn(C)c2=O)C(=O)Nc2nc3ccc(N(C)CCN(C)C)cc3n2C1")
0.69
>>> measured_number("C[C@@H]1CCCOc2c(cnn2C)-c2cc(cn(C)c2=O)C(=O)Nc2nc3ccc(N4CC5(CCN(C)C5)C4)cc3n2C1")
0.71

Let us examine a further case.
Reported log10 IC50 for CN1CCN(c2ccc3nc4n(c3c2)CC2(CCCOc3c(cnn3C)-c3cc(cn(C)c3=O)C(=O)N4)CC2)CC1 : what is it? 3.24

---

Kindly state IC50 for each of the entries shown.
biological target: EGFR (C797S L858R) (Homo sapiens, UniProt P00533, C797S/L858R); construct: purchased signalchem; test: Inhibition of EGFR (C797S L858R) biochemical enzymatic activity (HTRF); conditions: EGFR L858-C797S, 1 mM ATP, 1 h, room temperature, read-out: IC50 (nM) @L858-C797S
Sequence (P00533 25-1210 C797S/L858R): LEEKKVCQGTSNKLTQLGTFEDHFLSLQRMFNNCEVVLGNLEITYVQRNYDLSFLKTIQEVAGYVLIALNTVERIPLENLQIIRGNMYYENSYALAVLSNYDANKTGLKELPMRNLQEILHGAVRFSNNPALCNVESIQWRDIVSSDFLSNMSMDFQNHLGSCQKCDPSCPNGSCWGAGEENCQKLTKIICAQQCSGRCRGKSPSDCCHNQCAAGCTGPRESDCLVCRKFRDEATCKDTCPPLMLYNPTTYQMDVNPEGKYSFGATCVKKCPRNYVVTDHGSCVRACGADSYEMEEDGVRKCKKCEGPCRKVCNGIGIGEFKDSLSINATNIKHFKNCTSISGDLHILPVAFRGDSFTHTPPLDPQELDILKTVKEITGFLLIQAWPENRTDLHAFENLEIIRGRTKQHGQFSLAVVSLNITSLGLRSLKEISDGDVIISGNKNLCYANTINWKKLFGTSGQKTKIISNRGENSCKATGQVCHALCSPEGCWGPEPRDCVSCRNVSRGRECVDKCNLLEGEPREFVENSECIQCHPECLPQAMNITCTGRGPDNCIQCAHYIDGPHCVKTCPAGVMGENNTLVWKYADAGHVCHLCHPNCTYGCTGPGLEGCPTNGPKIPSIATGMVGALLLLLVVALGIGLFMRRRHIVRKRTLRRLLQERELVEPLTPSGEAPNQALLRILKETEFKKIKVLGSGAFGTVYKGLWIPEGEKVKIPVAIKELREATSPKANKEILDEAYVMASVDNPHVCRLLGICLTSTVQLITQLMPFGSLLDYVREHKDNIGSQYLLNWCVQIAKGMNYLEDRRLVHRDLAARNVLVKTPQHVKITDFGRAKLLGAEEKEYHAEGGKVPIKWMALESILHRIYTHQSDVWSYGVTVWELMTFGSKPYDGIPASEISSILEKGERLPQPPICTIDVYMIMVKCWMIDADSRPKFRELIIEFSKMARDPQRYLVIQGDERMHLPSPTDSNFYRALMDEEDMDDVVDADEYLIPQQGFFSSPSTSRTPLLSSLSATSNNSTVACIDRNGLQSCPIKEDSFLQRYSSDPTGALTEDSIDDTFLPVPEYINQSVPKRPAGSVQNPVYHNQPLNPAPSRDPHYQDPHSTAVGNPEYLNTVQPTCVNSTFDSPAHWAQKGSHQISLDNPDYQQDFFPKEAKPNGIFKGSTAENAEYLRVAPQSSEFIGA
Give bare numbers, in nM.

The cases that follow already have their IC50 on record.
>>> measured_number("CN(C)[C@H]1CCN(c2ccc3nc4n(c3c2)C23CCC(CC2)CN(CCOc2c(cnn2C)-c2cc(cn(C)c2=O)C(=O)N4)C3)C1")
108
>>> measured_number("Cn1ncc2c1OCCN1CC3CCC(C3)(C1)n1c(nc3ccc(N4CCN(C5CC5)CC4)cc31)NC(=O)c1cc-2c(=O)n(C)c1 (single isomer, unassigned) [Example A83A]")
2600

Continue with the compound presented below.
Item: Cn1ncc2c1OCCN1CC3CCC(CC3)(C1)n1c(nc3cc(F)c(N4CCOCC4)cc31)NC(=O)c1cc-2c(=O)n(C)c1 Test system: EGFR (C797S L858R) (Homo sapiens, UniProt P00533, C797S/L858R) Read-out: IC50 Value: ? 46

---

target: EGFR L858R (Homo sapiens, UniProt P00533, L858R); construct: purchased Carna Bio; assay: Inhibition of EGFR L858R biochemical enzymatic activity (HTRF); conditions: 1 mM ATP, 1 h, room temperature, read-out: IC50 (nM) @L858R
Sequence (P00533 25-1210 L858R): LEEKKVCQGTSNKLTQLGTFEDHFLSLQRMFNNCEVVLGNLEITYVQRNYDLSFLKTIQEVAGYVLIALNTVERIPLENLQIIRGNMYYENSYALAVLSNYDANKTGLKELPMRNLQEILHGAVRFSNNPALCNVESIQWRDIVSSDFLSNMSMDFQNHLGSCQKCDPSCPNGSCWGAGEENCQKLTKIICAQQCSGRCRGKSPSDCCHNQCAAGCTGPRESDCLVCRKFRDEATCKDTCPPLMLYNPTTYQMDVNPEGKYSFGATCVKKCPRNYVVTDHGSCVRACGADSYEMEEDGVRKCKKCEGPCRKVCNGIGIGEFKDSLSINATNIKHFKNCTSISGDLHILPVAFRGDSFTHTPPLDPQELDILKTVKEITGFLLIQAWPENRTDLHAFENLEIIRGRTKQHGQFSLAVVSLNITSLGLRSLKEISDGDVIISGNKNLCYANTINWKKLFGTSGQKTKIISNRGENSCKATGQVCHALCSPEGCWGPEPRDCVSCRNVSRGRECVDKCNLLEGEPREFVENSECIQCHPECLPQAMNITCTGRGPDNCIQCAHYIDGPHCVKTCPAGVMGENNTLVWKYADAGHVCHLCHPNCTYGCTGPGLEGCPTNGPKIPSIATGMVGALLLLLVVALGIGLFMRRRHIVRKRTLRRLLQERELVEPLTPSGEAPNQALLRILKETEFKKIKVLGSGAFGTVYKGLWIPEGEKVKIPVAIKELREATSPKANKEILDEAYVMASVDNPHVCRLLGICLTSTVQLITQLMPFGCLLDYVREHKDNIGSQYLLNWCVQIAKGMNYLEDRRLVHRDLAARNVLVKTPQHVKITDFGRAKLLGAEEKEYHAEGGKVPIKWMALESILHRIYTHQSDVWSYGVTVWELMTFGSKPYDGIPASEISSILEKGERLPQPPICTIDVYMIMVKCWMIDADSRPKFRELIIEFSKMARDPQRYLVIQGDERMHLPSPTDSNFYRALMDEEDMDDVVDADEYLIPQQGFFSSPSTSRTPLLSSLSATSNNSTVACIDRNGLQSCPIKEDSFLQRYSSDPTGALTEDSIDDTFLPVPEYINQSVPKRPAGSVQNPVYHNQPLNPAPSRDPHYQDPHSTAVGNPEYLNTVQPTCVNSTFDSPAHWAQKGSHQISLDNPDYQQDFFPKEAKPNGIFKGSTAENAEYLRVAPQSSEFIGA
Would you kindly list IC50 for each of these compounds?

>>> result("Cn1ncc2c1OCCN1CCCCC(C)(C1)n1c(nc3ccc(N4CCOCC4)cc31)NC(=O)c1cc-2c(=O)n(C)c1 (stereo not drawn) [Example A13]")
"> 5000 nM"
>>> result("CN1CCN(C2CCN(c3ccc4nc5n(c4c3)C34CCC(CN(CCOc6c(cnn6C)-c6cc(cn(C)c6=O)C(=O)N5)C3)C4)C2)CC1 (single isomer, unassigned) [Example A80A2]")
"> 5000 nM"

Here is another compound to look at.
I would be grateful if you could share the reported IC50 for CN(C)C1CCN(c2ccc3nc4n(c3c2)C23CCC(CN(CCOc5c(cnn5C)-c5cc(cn(C)c5=O)C(=O)N4)C2)C3)CC1 (single isomer, unassigned) [Example A64A] . > 5000 nM

---

Biological target: EGFR (d746-750 C797S) (Homo sapiens, UniProt P00533, C797S/DEL746-750)
Construct: purchased signalchem
Sequence (P00533 with tags, fused parts or gaps DEL746-750/C797S limits assumed): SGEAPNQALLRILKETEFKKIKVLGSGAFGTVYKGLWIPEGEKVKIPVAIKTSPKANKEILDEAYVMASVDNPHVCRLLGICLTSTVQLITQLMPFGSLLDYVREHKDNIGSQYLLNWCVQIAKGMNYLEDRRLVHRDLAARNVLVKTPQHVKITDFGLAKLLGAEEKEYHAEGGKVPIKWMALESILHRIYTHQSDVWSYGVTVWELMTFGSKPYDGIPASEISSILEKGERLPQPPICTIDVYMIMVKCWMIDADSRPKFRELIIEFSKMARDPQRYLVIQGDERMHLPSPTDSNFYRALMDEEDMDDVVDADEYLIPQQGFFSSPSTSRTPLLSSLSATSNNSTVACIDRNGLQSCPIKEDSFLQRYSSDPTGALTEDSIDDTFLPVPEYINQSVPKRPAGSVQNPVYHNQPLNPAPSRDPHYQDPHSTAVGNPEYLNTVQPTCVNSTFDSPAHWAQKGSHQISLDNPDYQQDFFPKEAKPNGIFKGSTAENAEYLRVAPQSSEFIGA
Assay: Inhibition of EGFR (d746-750 C797S) biochemical enzymatic activity (HTRF)
Conditions: EGFR Del19-C797S, 1 mM ATP, 1 h, room temperature, read-out: IC50 (nM) @Del19-C797S
Protocol: Biological Example 1: Inhibition of EGFR WT and Mutant Biochemical Enzymatic Activity The inhibition potency of compounds against these enzymes was assessed using Homogenous Time Resolved Fluorescence approach (HTRF, CisBio. Cat No. 62TKOPEJ). Inhibitory effects of the compounds were determined by measuring the enzymatic activity of EGFR enzyme phosphorylates 1 μM TK Substrate-biotin in the presence of 1 mM adenosine-5′-triphosphate (ATP) and varying concentrations of the test compound. […]
Kindly state IC50 for each of the entries shown.
Give bare numbers, in nM.

Solved entries (count: 5):
>>> measured_number("CN(C)C1CN(c2ccc3nc4n(c3c2)C23CCC(CN(CCOc5c(cnn5C)-c5cc(cn(C)c5=O)C(=O)N4)C2)C3)CC1F (single isomer, unassigned) [Example A84A]")
258
>>> measured_number("C[C@@H]1CCCOc2c(cnn2C)-c2cc(cn(C)c2=O)C(=O)Nc2nc3ccc(N4CC(N(C)C)C4)cc3n2C1 [Example A37]")
1.7
>>> measured_number("CN(C)C1CN(c2ccc3nc4n(c3c2)C23CCC(CN(CCOc5c(cnn5C)-c5cc(cn(C)c5=O)C(=O)N4)C2)C3)CC1F (single isomer, unassigned) [Example A84D]")
2.4
>>> measured_number("CN(C)C1CN(c2ccc3nc4n(c3c2)C23CCC(CN(CCOc5c(cnn5C)-c5cc(cn(C)c5=O)C(=O)N4)C2)C3)CC1(F)F (single isomer, unassigned) [Example A99B]")
4.6
>>> measured_number("C[C@@H]1CCCOc2c(cnn2C)-c2cc(cn(C)c2=O)C(=O)Nc2nc3ccc4c(c3n2C1)CCN(C)C4 [Example A103]")
5.4

// batch mode: one IC50 value per listed entry
1. CN1CCN(C2CCN(c3ccc4nc5n(c4c3)C34CCC(CN(CCOc6c(cnn6C)-c6cc(cn(C)c6=O)C(=O)N5)C3)C4)CC2)CC1 (single isomer, unassigned) [Example A106A]
2. CN(C)CCCN(C)c1ccc2nc3n(c2c1)C12CCC(CN(CCOc4c(cnn4C)-c4cc(cn(C)c4=O)C(=O)N3)C1)C2 (single isomer, unassigned) [Example A89B]

1: 446; 2: 2.2
